Test: qHTS of pediatric cancer cell lines to identify multiple opportunities for drug repurposing: Primary screen for U-2 OS cells (AID 1347096); note: nearly all actives have a fitted effect of over 50% in size
Settings: U-2 OS viability, CellTiter-Glo luminescence, 48 h; series mostly up to 46 µM
Results filed as inconclusive are left out. Activity calls are given as the source filed them. Calls come from the whole dose curve; as a rule, active = well fitted cell-killing curve with a large enough effect; inconclusive = small, poorly fitted or top-dose-only effect; inactive = flat fitted curve, though single readings scatter.
Lab note: assign the record to one of active, inactive

Cc1nnc(C(=O)NC(C)(C)c2nc(C(=O)NCc3ccc(F)cc3)c(O)c(=O)n2C)o1
inactive
NC1(c2ccc(-c3nc4ccn5c(=O)[nH]nc5c4cc3-c3ccccc3)cc2)CCC1
inactive
CCc1cc(C(N)=S)ccn1
inactive
O=C(O)c1cc(=O)[nH]c(=O)[nH]1
inactive
CC(C)C1CCC(C(=O)N[C@H](Cc2ccccc2)C(=O)O)CC1 (stereo partly specified)
inactive
C[C@@H]1CN(c2c(F)c(N)c3c(=O)c(C(=O)O)cn(C4CC4)c3c2F)C[C@H](C)N1
inactive
Cc1cccc(N(C)C(=S)Oc2ccc3ccccc3c2)c1
inactive
CC(C)(Sc1cc(C(C)(C)C)c(O)c(C(C)(C)C)c1)Sc1cc(C(C)(C)C)c(O)c(C(C)(C)C)c1
inactive
Nc1nc(N)c2nc(CNc3ccc(C(=O)NC(CCC(=O)O)C(=O)O)cc3)cnc2n1 (stereo unspecified)
inactive
CCOCC(O)COc1ccc(NC(=O)CC[S+](C)C)cc1 (stereo unspecified)
inactive

Entry COc1nc(N)nc2c1ncn2[C@@H]1O[C@H](CO)[C@@H](O)[C@@H]1O : call = ?
inactive

Entry CC(C)(C)C(=O)OCOP(=O)(COCCn1cnc2c(N)ncnc21)OCOC(=O)C(C)(C)C : call = ?
inactive

Entry CN1CCN(c2c(F)cc3c(=O)c(C(=O)O)cn(CCF)c3c2F)CC1 : call = ?
inactive

Entry CCCCOc1ccc(CC(=O)NO)cc1 : call = ?
active

Entry CCN(C)C(=O)Oc1cccc([C@H](C)N(C)C)c1 : call = ?
inactive

Entry O=c1cc(O)c(Cl)c[nH]1 : call = ?
inactive

Entry CN(C)CCc1c[nH]c2ccc(CS(=O)(=O)N3CCCC3)cc12 : call = ?
inactive
